Recorded values, source ChEMBL document CHEMBL1140329.

Target: Peptidyl-prolyl cis-trans isomerase NIMA-interacting 1 (Homo sapiens, UniProt Q13526)
Sequence (Q13526 whole entry): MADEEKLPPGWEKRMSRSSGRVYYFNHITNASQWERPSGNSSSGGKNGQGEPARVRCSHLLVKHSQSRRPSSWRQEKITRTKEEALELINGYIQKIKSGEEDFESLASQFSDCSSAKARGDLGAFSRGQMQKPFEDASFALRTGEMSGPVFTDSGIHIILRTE
Where a SMILES comes first, the peptide text is derived from it. [ ]: non-standard residue; d: D form. pT = C[C@@H](OP(=O)(O)O)[C@H](N)C(=O)O; ΔPro = O=C(O)[C@@H]1C=CCN1; Thz = O=C(O)[C@@H]1CSCN1
Measured parameter: Kd (µM)
State the answer as a number, implicitly in µM.

INSERT INTO assay_data (molecule, measurement) VALUES
  ('NC(=O)[C@@H]1CCCN1C(=O)[C@H](CCC/N=c1\c(O)c(O)c1=O)NC(=O)OCC1c2ccccc2-c2ccccc21', 910),
  ('C[C@@H](OP(=O)(O)O)[C@H](NC(=O)CCCc1ccccc1)C(=O)N1CC=C[C@H]1C(N)=O', 28),
  ('CC(=O)N[C@H](C(=O)N1CSC[C@H]1C(N)=O)[C@@H](C)OP(=O)(O)O (Ac-[pT]-[Thz]-NH2)', 400),
  ('C[C@@H](OP(=O)(O)O)[C@H](NC(=O)CCCCc1ccccc1)C(=O)N1CCC[C@H]1C(N)=O', 48);

What Kd value was documented for this molecule, CC(=O)N[C@H](C(=O)N1CC=C[C@H]1C(N)=O)[C@@H](C)OP(=O)(O)O (Ac-[pT]-[ΔPro]-NH2) ?
18
